I'd be grateful if you could share measured GI50 for these entries.
- Tested on: MOLT-4
- protocolDescription: NCI tumour cell line growth inhibition, 48 h
Active and inactive are the calls of the source. No stated cut-off is given here; in the data, active = GI50 up to about 1.1 µM and inactive = higher.

input: Give GI50 for O=c1[nH]nc(-c2ccc3ccccc3c2)[nH]1
output: > 100 µM (inactive)

input: Give GI50 for CN(C)c1ccc(C(C=C2c3ccccc3Sc3ccccc32)=C(C#N)C#N)cc1
output: > 100 µM (inactive)

input: Give GI50 for O=C1CCCCCCCCCCC1CCCCCBr (configuration not stated)
output: 17.1 µM (inactive)

input: Give GI50 for O=C(O)CSCC(=O)Nc1ccc2cccc3c2c1CC3
output: > 100 µM (inactive)

input: Give GI50 for CNCCCNC(=S)Cn1cc(C)c(=O)[nH]c1=O
output: > 35.2 µM (inactive)

input: Give GI50 for COc1ccccc1C1c2cc3c(cc2OC(N2CCOCC2)C1C)OCO3 (configuration not stated)
output: 17.1 µM (inactive)

input: Give GI50 for O=c1[nH]nc(Cc2ccccc2)n1/N=C/c1ccc(/C=N/n2c(Cc3ccccc3)n[nH]c2=O)cc1
output: 19.4 µM (inactive)

###

- System: HT-29
- protocolDescription: NCI tumour cell line growth inhibition, 48 h
Activity calls are given as the source filed them. Rule as the data show it: active = GI50 up to about 1.1 µM and inactive = higher.
Return exactly one item of active, inactive

input: Dear all, I need the recorded test outcome for COc1cc(/C=C2\CCC(C)C3C2=NN(C(C)=O)C3c2cc(OC)c(OC)c(OC)c2)cc(OC)c1OC (stereo not given) , thank you.
output: inactive

input: Dear all, I need the recorded test outcome for CN1C(=O)n2c(nc3ccccc32)C(N=[N+]=[N-])(N=[N+]=[N-])C1=O (stereo not given) , thank you.
output: inactive

input: Dear all, I need the recorded test outcome for COc1cc(/C=C\c2ccc(Br)cc2)cc(OC)c1OC , thank you.
output: active

input: Dear all, I need the recorded test outcome for COc1ccc(/C=C/C(=O)Oc2cc(O)cc(O)c2)cc1 , thank you.
output: inactive

input: Dear all, I need the recorded test outcome for COC(=O)c1cc(O)ccc1NC(=O)c1ccc(O)cc1 , thank you.
output: inactive

input: Dear all, I need the recorded test outcome for CNCCCNc1c2ccccc2nc2cccc([N+](=O)[O-])c12 , thank you.
output: active

input: Dear all, I need the recorded test outcome for c1ccc2sc(SCCSc3nc4ccccc4s3)nc2c1 , thank you.
output: inactive

input: Dear all, I need the recorded test outcome for CCOC(=O)c1cc(/C=C/C(C)=C/C(=O)OC)oc1C , thank you.
output: inactive

input: Dear all, I need the recorded test outcome for O=C(Nc1ccc(Cl)c(Cl)c1)C(=O)C(C1OC(=O)c2ccccc21)[N+](=O)[O-] (stereo not given) , thank you.
output: inactive

input: Dear all, I need the recorded test outcome for CC(=NNC(=S)Nc1ccccc1)c1cccc(C(C)=NNC(=S)Nc2ccccc2)n1 , thank you.
output: inactive

input: Dear all, I need the recorded test outcome for Cc1ccccc1NC(=O)/C(C#N)=N\Nc1[nH]cnc1C(N)=O , thank you.
output: inactive

input: Dear all, I need the recorded test outcome for N#CC1(C#N)C2(c3ccccc3)OC(c3ccccc3)(c3cc4ccccc4cc32)C1(C#N)C#N , thank you.
output: inactive

input: Dear all, I need the recorded test outcome for Cc1ccc(S(=O)(=O)N/N=C(\c2nc3ccc(Cl)cc3nc2O)C(O)c2cccc([N+](=O)[O-])c2)cc1 (stereo not given) , thank you.
output: inactive

input: Dear all, I need the recorded test outcome for O=C(C/C(=N/O)C(F)(F)F)c1cccs1 , thank you.
output: inactive

input: Dear all, I need the recorded test outcome for CO[C@@]12C[C@@H](CNC(=O)c3cc(Br)c[nH]3)O[C@@H]1NC(=O)N2 , thank you.
output: inactive

input: Dear all, I need the recorded test outcome for C=C(C)CCC(O)[C@](C)(O)[C@H]1[C@H](O)C[C@@]2(C)[C@@H]3CCc4c(cc(OC5OC(CO)C(O)C(O)C5O)c(O)c4C)C3(C)C(=O)C[C@]12C (stereo not given in full) , thank you.
output: inactive

input: Dear all, I need the recorded test outcome for CC1(C)C(=O)C2(C#N)CCC1C2 (stereo not given) , thank you.
output: inactive

input: Dear all, I need the recorded test outcome for O=c1[nH]c2ccc(Cl)cc2o1 , thank you.
output: inactive

input: Dear all, I need the recorded test outcome for COc1cc(/C=N\O)cc(/C=N/O)c1O , thank you.
output: inactive

input: Dear all, I need the recorded test outcome for Cc1nc(-n2nc(-c3ccccc3)cc2-c2ccccc2)sc1C(/C=C/c1ccc([N+](=O)[O-])cc1)=N/NC(=O)c1ccncc1 , thank you.
output: inactive
